Quantity name: melting point (°C)
Field format: number, assumed °C, no unit text.

Look over these answered cases.
>>> df
                                   molecule  quantity_name  unit_text  reported_value
0  O=S(=O)(Cc1ccc(C(O)(C(F)(F)F)C(F)(F)F)cc1)c1ccc(Br)cc1  melting point         °C             126
1  C=CCC(c1ccc(C(O)(C(F)(F)F)C(F)(F)F)cc1)S(=O)(=O)c1ccccc1 (stereo not drawn)  melting point         °C             148
2  O=S(=O)(Cc1ccc(C(O)(C(F)(F)F)C(F)(F)F)cc1)c1ccc(Cl)cc1  melting point         °C             112
3  Cc1ccc(CC(c2ccc(C(O)(C(F)(F)F)C(F)(F)F)cc2)S(=O)(=O)c2ccccc2)cc1 (stereo not drawn)  melting point         °C             159

Give me measured melting point, please, for this molecule: O=S(=O)(Cc1ccc(C(O)(C(F)(F)F)C(F)(F)F)cc1)c1ccc2ccccc2c1
148

Give me measured melting point, please, for this molecule: CC(C)(C)C(=O)C(c1ccc(C(O)(C(F)(F)F)C(F)(F)F)cc1)S(=O)(=O)c1ccccc1 (stereo not drawn)
172

Give me measured melting point, please, for this molecule: O=S(=O)(c1ccccc1)C(Cc1ccc(-c2ccccc2)cc1)c1ccc(C(O)(C(F)(F)F)C(F)(F)F)cc1 (stereo not drawn)
192

Give me measured melting point, please, for this molecule: O=S(=O)(Cc1ccc(C(O)(C(F)(F)F)C(F)(F)F)cc1)c1ccccc1Br
124
